Sourced from patent US20240201167A1

Molecular target: T1, human B7-1 N82E on cells (Homo sapiens, UniProt P33681 35-280)
T1 construct: C-terminally fused to mCherry; also called ASN82 GLU
T1 chain: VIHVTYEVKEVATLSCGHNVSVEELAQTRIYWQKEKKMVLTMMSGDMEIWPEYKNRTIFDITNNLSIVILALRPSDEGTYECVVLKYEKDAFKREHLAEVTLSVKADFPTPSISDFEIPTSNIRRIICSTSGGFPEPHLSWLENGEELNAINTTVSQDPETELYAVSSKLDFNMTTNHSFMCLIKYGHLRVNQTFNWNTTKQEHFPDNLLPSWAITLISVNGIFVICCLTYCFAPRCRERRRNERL
Test: cell-cell binding, flow cytometry; percent of the wild-type pair
READOUT_TYPE: percent binding (%)
Number in %, nothing else.

# percent binding lookup, item human p75 neurotrophin receptor, full length, expressed on HEK 293 cells (receptor, Full-length human p75 with a cytosolic fluorescent tag (GFP); also called p75NTR; NGFR) KEACPTGLYTHSGECCKACNLGEGVAQPCGANQTVCEPCLDSVTFSDVVSATEPCKPCTECVGLQSMSAPCVEADDAVCRCAYGYYQDETTGRCEACRVCEAGSGLVFSCQDKQNTVCEECPDGTYSDEANHVDPCLPCTVCEDTERQLRECTRWADAECEEIPGRWITRSTPPEGSDSTAPSTQEPEAPPEQDLIASTVAGVVTTVMGSSQPVVTRGTTDNLIPVYCSILAAVVVGLVAYIAFKRWNSCKQNKQGANSRPVNQTPPPEGEKLHSDSGISVDSQSLHDQQPHTQTASGQALKGDGGLYSSLPPAKREEVEKLLNGSAGDTWRHLAGELGYQPEHIDSFTHEACPVRALLASWATQDSATLDALLAALRRIQRADLVESLCSESTATSPV
25
